The values you see were collected from ChEMBL document CHEMBL4819004.

Test system: MOLM-13
Assay: Antiproliferative activity against human MOLM-13 cells incubated for 72 hrs by MTT assay
Assay type: functional, cell-based
Settings: MOLM-13, 72 h
recorded-endpoint: IC50

Supply recorded IC50 for COc1cc(N2CCN(CCCCCCCC(=O)NCCNc3cccc4c3C(=O)N(C3CCC(=O)NC3=O)C4=O)CC2)ccc1-c1ncnc(Nc2cccc(CS(C)(=N)=O)c2)n1 (stereo not drawn) here.
> 50 µM

Respond only with IC50 recorded for COc1cc(N2CCN(CCCCCCCCCC(=O)NCCNc3cccc4c3C(=O)N(C3CCC(=O)NC3=O)C4=O)CC2)ccc1-c1ncnc(Nc2cccc(CS(C)(=N)=O)c2)n1 (stereo not drawn)
> 50 µM

Report IC50 for COc1cc(N2CCN(CCCCCCC(=O)NCCNc3cccc4c3C(=O)N(C3CCC(=O)NC3=O)C4=O)CC2)ccc1-c1ncnc(Nc2cccc(CS(C)(=N)=O)c2)n1 (stereo not drawn)
> 50 µM
